Value source: the EternaBench riboswitch data

System: MS2 coat protein
PROTOCOL_SUMMARY: apparent Kd, MS2 coat protein; higher = weaker binding; RNA-MaP array; FMN 200 µM where present
CONDITION: ligand present: flavin mononucleotide; designed as: OFF switch for flavin mononucleotide
Class (by apparent Kd) -- bottom (below 10 nM), middle (10 nM to below 30 nM), top (30 nM or more)

[[record]]
item_sequence = "CCGAGAAGGAGAGGAUAUGGACAUGAGGAUCACCCAUGUACAUGGGAAUAUAUACUGAAUUUUUACUAGAAGGCUUACAUAAAU"
answer_label = "middle"

[[record]]
item_sequence = "GAUAGGACAGAGAAGGACGUAGCUAGAGAUACUAGCAUAUGAACCUUCACAUGAGGAUCACCCAUGUAGGAUAUCUGUCCUAUC"
answer_label = "bottom"

[[record]]
item_sequence = "GAUCCGUGGCUUUCGCUUUGUUCACAUGAGGAUCACCCAUGUAGAAGGUAGCGGUUGAAUUUCGCUGAGGAUAUACAUAGGUGC"
answer_label = "middle"

[[record]]
item_sequence = "UCGGCGCGAGGAUAUGCGGUUUGUGCUUUGGGCCCUGGCGUACAUGAGGAUCACCCAUGUAGAAGGCGCGCCGC"
answer_label = "middle"

[[record]]
item_sequence = "UCACGGCAUGUAGGAUAUGCAUAGCAUUGCUAUGCAGAAGGACAUGAGGAUCACCCAUGUAUGUAUUCCAUACUAUUCCCGUGU"
answer_label = "middle"


Form field 'band' for UUUUUGUCAGGAUAUGAUUAGAUCUACUUCGGUAGAUCUAAUCAGAAGGGACAUGAGGAUCACCCAUGUAGUUU
top

State the class of the sequence shown: GCGUGGUUCUAGAAGGUGCUAGCGAUAAGCUAGCAAGGAUAUAGACAUGAGGAUCACCCAUGUCUUAAUGAAAUGGACACACGC
bottom

Could you place UUAACAUGCUUAGGAUAUCGGAUUUUUUUUUUUCGAGAAGGAAGAUUCUUUUUUUUUUACAUGAGGAUCACCCAUGUUUAUUUU in its proper category? Many thanks.
bottom

Into which category would you place CACGCCUAGGAGAAGGGCCCACUAUAGGGUAAAUGCUGUUCUCACAUGAGGAUCACCCAUGUGCGGCAGGAUAUCCACGCGUAA ?
top
